Give Inf. D: Candida parapsilosis B66126, pIC50 for every item shown.
System: Candida parapsilosis
TEST DETAILS: Antifungal activity in vitro, resazurin growth inhibition: Candida parapsilosis (B66126)
Format: cell-based

Any idea what Inf. D: Candida parapsilosis B66126, pIC50 was measured for Cc1ncc(C2=NCc3c(C)cccc3-n3cccc32)cn1 ?
<4.19

Record request: Inf. D: Candida parapsilosis B66126, pIC50 value, item Cn1nc2ccc(C3=NCc4c(Cl)cc(Cl)cc4-n4cccc43)cc2n1
<4.19

Would you mind telling me what Inf. D: Candida parapsilosis B66126, pIC50 value was observed for Clc1cccc2c1CN=C(c1ccc3ncsc3c1)c1cccn1-2 ?
<4.19

What value of Inf. D: Candida parapsilosis B66126, pIC50 has been recorded for this entry: Fc1ccc2oc(C3=NCc4c(Cl)cccc4-n4cccc43)cc2c1
<4.19

What value of Inf. D: Candida parapsilosis B66126, pIC50 has been reported for the following compound? CCc1ccc(C2=NCc3c(Cl)cccc3-n3cccc32)nc1
<4.49

* * *

Would you mind telling me the reported Inf. G: Trichophyton mentagrophytes B70554, pIC50 of each entry?
Tested on: Trichophyton mentagrophytes
TEST DETAILS: Antifungal activity in vitro, resazurin growth inhibition: Trichophyton mentagrophytes (B70554)
Assay type: cell-based

Quick one: Inf. G: Trichophyton mentagrophytes B70554, pIC50 of Fc1cccc2cc(C3=NCc4c(Cl)cc(Cl)cc4-n4cccc43)sc12 [Compound 171] ?
<4.19

Quick one: Inf. G: Trichophyton mentagrophytes B70554, pIC50 for Cc1ccc(Cl)c2c1-n1cccc1C(c1cnc(C(F)(F)F)nc1)NC2.Cl (racemic) [Compound 27] ?
<4.90

GET /values?readout=Inf. G: Trichophyton mentagrophytes B70554, pIC50&item= COc1cccc2cc(C3=NCc4ccc(Cl)cc4-n4cccc43)oc12 [Compound 142]
<4.19

Query (compound): FC(F)(F)c1ncc(C2=NCc3c(Cl)cc(Cl)cc3-n3cccc32)cn1 [Compound 104] ; field requested: Inf. G: Trichophyton mentagrophytes B70554, pIC50
<4.19

Inf. G: Trichophyton mentagrophytes B70554, pIC50 lookup needed for Cc1ccc2cc(C3=NCc4c(Cl)cc(Cl)cc4-n4cccc43)oc2c1 [Compound 139] , thanks.
<4.19

Item CCc1ccc(C2=NCc3c(Cl)cccc3-n3cccc32)nc1 [Compound 72] has what recorded Inf. G: Trichophyton mentagrophytes B70554, pIC50?
<4.49

* * *

Tested on: Candida parapsilosis
TEST DETAILS: Antifungal activity in vitro, resazurin growth inhibition: Candida parapsilosis (B66126)
Format: cell-based
OUTCOME MEASURE: Inf. D: Candida parapsilosis B66126, pIC50

Short answer please: Inf. D: Candida parapsilosis B66126, pIC50, Candida parapsilosis, entry Clc1cccc2c1CN=C(c1cccnc1)c1cccn1-2
<4

Recorded Inf. D: Candida parapsilosis B66126, pIC50 for Cn1ccc2cc(C3=NCc4c(Cl)cc(Cl)cc4-n4cccc43)ccc21 with Candida parapsilosis, please?
4.87

Item CCc1csc(C2=NCc3c(Cl)cccc3-n3cccc32)n1 with Candida parapsilosis - Inf. D: Candida parapsilosis B66126, pIC50?
<4.19

Find the measured Inf. D: Candida parapsilosis B66126, pIC50: item Clc1ccc2c(c1)-n1cccc1C(c1ccc3nc[nH]c3c1)=NC2 , target or system Candida parapsilosis.
<4

I'm curious: which Inf. D: Candida parapsilosis B66126, pIC50 was measured for Clc1ccc2c(c1)-n1cccc1C(c1ccc3ncsc3c1)=NC2 tested on Candida parapsilosis?
4.23

Lab note: need Inf. D: Candida parapsilosis B66126, pIC50 for Cl.Fc1ccc2oc(C3NCc4ccc(Cl)cc4-n4cccc43)cc2c1 (racemic) on Candida parapsilosis, anyone have it?
<4.19

GET /values?readout=Inf. D: Candida parapsilosis B66126, pIC50&system=Candida parapsilosis&item= CCc1csc(C2=NCc3c(Cl)cc(Cl)cc3-n3cccc32)n1
<4.19

Give Inf. D: Candida parapsilosis B66126, pIC50 (Candida parapsilosis) of the following compound: COc1cccc2cc(C3=NCc4ccccc4-n4cccc43)oc12
4.61

Can you look up Inf. D: Candida parapsilosis B66126, pIC50 on Candida parapsilosis for Clc1cccc2c1-n1cccc1C(c1ccc3ncsc3c1)=NC2 ?
<4.19

* * *

Test system: Sporothrix schenkii
TEST DETAILS: Antifungal activity in vitro, resazurin growth inhibition: Sporothrix schenkii (B62482)
Format: cell-based
OUTCOME MEASURE: Inf. A: Sporothrix schenkii B62482, pIC50
Give the figure by itself; no unit, no explanation.

Fill in the recorded Inf. A: Sporothrix schenkii B62482, pIC50 for this compound, with Sporothrix schenkii as test system: Cc1nc2cc(C3=NCc4c(Cl)cccc4-n4cccc43)ccc2s1
4.75

API: value(readout=Inf. A: Sporothrix schenkii B62482, pIC50, system=Sporothrix schenkii) for record CC(F)(F)c1ccc(C2=NCc3c(Cl)cc(F)cc3-n3cccc32)cn1
4.63

Please provide the recorded Inf. A: Sporothrix schenkii B62482, pIC50 for Fc1cccc2cc(C3=NCc4c(Cl)cccc4-n4cccc43)sc12 , tested on Sporothrix schenkii.
5.55

Give recorded Inf. A: Sporothrix schenkii B62482, pIC50 with Sporothrix schenkii for the following compound: Cn1ccc2ccc(C3=NCc4c(Cl)cccc4-n4cccc43)cc21
5.00

Tell me reported Inf. A: Sporothrix schenkii B62482, pIC50 for CCc1ccc(C2=NCc3c(Cl)cccc3-n3cccc32)cn1 , tested with Sporothrix schenkii.
4.44

Can you look up Inf. A: Sporothrix schenkii B62482, pIC50 on Sporothrix schenkii for COc1cccc2cc(C3=NCc4c(C)cccc4-n4cccc43)oc12 ?
5.69

Provide the documented Inf. A: Sporothrix schenkii B62482, pIC50 with Sporothrix schenkii as the system for Cc1ccc2cc(C3=NCc4ccccc4-n4cccc43)oc2c1
5.52

* * *

Test system: Trichophyton mentagrophytes
TEST DETAILS: Antifungal activity in vitro, resazurin growth inhibition: Trichophyton mentagrophytes (B70554)
Type: cell-based
Parameter threshold = 6. Response is Criterion met when Inf. G: Trichophyton mentagrophytes B70554, pIC50 meets or exceeds it, else Criterion not met.

Dear colleague, could you confirm whether Clc1cccc2c1CN=C(c1cccnc1)c1cccn1-2 has Inf. G: Trichophyton mentagrophytes B70554, pIC50 at or above 6?
Criterion not met

In plain terms: is recorded Inf. G: Trichophyton mentagrophytes B70554, pIC50 at least 6 for Cc1cccc2c1CN=C(c1cc3cccc(C)c3o1)c1cccn1-2 ?
Criterion met

Textbook exercise: given the entry COc1cccc2cc(C3=NCc4c(Cl)cccc4-n4cccc43)oc12 , state whether its Inf. G: Trichophyton mentagrophytes B70554, pIC50 is greater than or equal to 6.
Criterion met

Exam item: decide whether the reported Inf. G: Trichophyton mentagrophytes B70554, pIC50 for Clc1cc(C2=NCc3c(Cl)cccc3-n3cccc32)cnc1Cl is at least 6.
Criterion not met

Is the recorded value of Inf. G: Trichophyton mentagrophytes B70554, pIC50 equal to or greater than 6 for this compound? Cc1nc(Cl)cc2cc(C3=NCc4c(Cl)cccc4-n4cccc43)oc12
Criterion not met

Hi team, for Cl.Fc1cccc2c1CNC(c1ccc(C(F)(F)F)nc1)c1cccn1-2 (racemic) , is the recorded Inf. G: Trichophyton mentagrophytes B70554, pIC50 at or above 6?
Criterion not met

Evaluate CC(=O)c1ccc(C2=NCc3c(Cl)cccc3-n3cccc32)cn1 : Inf. G: Trichophyton mentagrophytes B70554, pIC50 at minimum 6?
Criterion not met

Is Inf. G: Trichophyton mentagrophytes B70554, pIC50 at least 6? Consider Cl.c1ccc2c(c1)CNC(c1cc3ccccc3o1)c1cccn1-2 (racemic)
Criterion not met

Inf. G: Trichophyton mentagrophytes B70554, pIC50 >= 6 for Clc1cccc2c1CN=C(c1ccc3nc[nH]c3c1)c1cccn1-2 ?
Criterion not met

State whether the measured Inf. G: Trichophyton mentagrophytes B70554, pIC50 reaches 6, counting equality as reaching it, for Cn1nnc2ccc(C3=NCc4c(Cl)cccc4-n4cccc43)cc21
Criterion not met

Is reported Inf. G: Trichophyton mentagrophytes B70554, pIC50 greater than or equal to 6 here: Cl.c1ccc2c(c1)CNC(c1cc3ccccc3s1)c1cccn1-2 (racemic)
Criterion not met

Inf. G: Trichophyton mentagrophytes B70554, pIC50 >= 6 for Clc1ccc2c(c1)-n1cccc1C(c1ccc3sccc3c1)=NC2 ?
Criterion met

Quick check, Inf. G: Trichophyton mentagrophytes B70554, pIC50 >= 6? Cc1ncc(C2=NCc3c(Cl)cccc3-n3cccc32)cn1
Criterion not met

Inf. G: Trichophyton mentagrophytes B70554, pIC50 >= 6 for Clc1cccc2c1CN=C(c1ccc3occ(Cl)c3c1)c1cccn1-2 ?
Criterion met

Item Cc1ccc2cc(C3=NCc4c(Cl)cccc4-n4cccc43)ccc2n1 with Inf. G: Trichophyton mentagrophytes B70554, pIC50 of 6 or above?
Criterion not met

Please check the record Cc1cc(C2=NCc3ccccc3-n3cccc32)ccn1 and state if its Inf. G: Trichophyton mentagrophytes B70554, pIC50 is at or above 6.
Criterion not met

Could you tell me if the measured Inf. G: Trichophyton mentagrophytes B70554, pIC50 of Cl.Clc1cc(Cl)c2c(c1)-n1cccc1C(c1cc3ccccc3s1)NC2 (racemic) reaches 6 or more?
Criterion not met

# check: Inf. G: Trichophyton mentagrophytes B70554, pIC50 of Cl.Clc1cccc2c1CN=C(c1nc3ccccc3s1)c1cccn1-2 is greater than or equal to 6
Criterion not met

Say whether Clc1cc(Cl)c2c(c1)-n1cccc1C(c1ccc3ncsc3c1)=NC2 shows Inf. G: Trichophyton mentagrophytes B70554, pIC50 of 6 or more.
Criterion met

Kindly determine if Inf. G: Trichophyton mentagrophytes B70554, pIC50 recorded for Clc1ccc2c(c1)-n1cccc1C(c1cnc3ccccc3c1)=NC2 is above or exactly 6.
Criterion not met

Could you tell me if the measured Inf. G: Trichophyton mentagrophytes B70554, pIC50 of Cc1ccc2cc(C3NCc4c(Cl)cccc4-n4cccc43)oc2c1.Cl (racemic) reaches 6 or more?
Criterion not met

Could you verify whether the entry Clc1cccc2c1CN=C(c1ccc3snnc3c1)c1cccn1-2 shows Inf. G: Trichophyton mentagrophytes B70554, pIC50 of no less than 6?
Criterion not met

Hi team, for Cn1ccc2cc(C3=NCc4c(Cl)cc(Cl)cc4-n4cccc43)ccc21 , is the recorded Inf. G: Trichophyton mentagrophytes B70554, pIC50 at or above 6?
Criterion not met

Exam item: decide whether the reported Inf. G: Trichophyton mentagrophytes B70554, pIC50 for Fc1cccc2cc(C3=NCc4c(Cl)cc(Cl)cc4-n4cccc43)oc12 is at least 6.
Criterion not met

Decide: Inf. G: Trichophyton mentagrophytes B70554, pIC50 of Cc1ccc2cc(C3NCc4c(C)cccc4-n4cccc43)oc2c1.Cl (racemic) >= 6?
Criterion not met

Is it the case that Cl.Clc1cc2oc(C3NCc4c(Cl)cccc4-n4cccc43)cc2cn1 (racemic) has Inf. G: Trichophyton mentagrophytes B70554, pIC50 reaching or exceeding 6?
Criterion not met

Determine whether this compound has Inf. G: Trichophyton mentagrophytes B70554, pIC50 no lower than 6: CC(=O)c1ccc(C2=NCc3c(F)cccc3-n3cccc32)cn1
Criterion not met
